Tested on: A-375
Assay: Induction of apoptosis in human A-375 cells assessed assessed as necrotic cells at 5 uM incubated for 24 hrs by Annexin V-Elab Fluor 647/propidium iodide staining based flow cytometry (reference value: 1.45 %)
Format: functional
Here, each record is paired with measured Activity data.
Could you give me the number in %? Just the number is fine.

// worked examples, Activity included
structure string	Activity [%]
C[n+]1cc2c3c(ccc2c2ccc4cc5c(cc4c21)OCO5)OCO3	29.3
COc1ccc2c(c[n+](C)c3c4cc5c(cc4ccc23)OCO5)c1OC	6.96

Give measured Activity for c1c2c(cc3c1OCO3)-c1cc3ccc4c(c3c[n+]1CC2)OCO4 (A-375).
84.6

Provide Activity, recorded with A-375, of COc1ccc2cc3[n+](cc2c1OC)CCc1cc2c(cc1-3)OCO2
56.1

Specify the recorded Activity for COc1cc2c[n+](C)c3c4cc5c(cc4ccc3c2cc1OC)OCO5 , system: A-375.
6.7

###

Biological target: Salmon testes DNA
Test: Displacement of Hoechst 33342 from salmon sperm DNA incubated for 0.5 hrs by SpectraMax M2 microplate reader analysis
Assay type: nucleic-acid assay, Salmo salar
reported endpoint: DC50 (µM)
Unit µM implied. Number only.

structure string	study system	value units	DC50
c1c2c(cc3c1OCO3)-c1cc3ccc4c(c3c[n+]1CC2)OCO4	Salmon testes DNA	µM	38.1
COc1ccc2c(c[n+](C)c3c4cc5c(cc4ccc23)OCO5)c1OC	Salmon testes DNA	µM	6.47
C[n+]1cc2c3c(ccc2c2ccc4cc5c(cc4c21)OCO5)OCO3	Salmon testes DNA	µM	5.7

Give recorded DC50. COc1cc2c[n+](C)c3c4cc5c(cc4ccc3c2cc1OC)OCO5
10.8

Give reported DC50 value for COc1ccc2cc3[n+](cc2c1OC)CCc1cc2c(cc1-3)OCO2
56.6

###

Molecular target: Quadruplex DNA
Test: Displacement of ThT from human G4-quadruplex 22AG DNA 5'- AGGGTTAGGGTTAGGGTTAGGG -3' incubated for 0.5 hrs by SpectraMax M2 microplate reader analysis
Format: nucleic-acid assay
reported endpoint: log10(DC50) (log10 of the value in µM)
The base-10 logarithm of DC50, taken with DC50 in µM, is what appears here.

These solved cases illustrate the format of a correct answer.
structure string	study system	val
COc1cc2c[n+](C)c3c4cc5c(cc4ccc3c2cc1OC)OCO5	Quadruplex DNA	1.19
c1c2c(cc3c1OCO3)-c1cc3ccc4c(c3c[n+]1CC2)OCO4	Quadruplex DNA	0.29
C[n+]1cc2c3c(ccc2c2ccc4cc5c(cc4c21)OCO5)OCO3	Quadruplex DNA	0.44
COc1ccc2c(c[n+](C)c3c4cc5c(cc4ccc23)OCO5)c1OC	Quadruplex DNA	0.48

Please examine the following record next.
Give the reported value of log10(DC50) for this record: COc1ccc2cc3[n+](cc2c1OC)CCc1cc2c(cc1-3)OCO2
1.37

###

Target: dsDNA
Assay: Binding affinity to double stranded DNA AT17 (unknown origin) incubated for 0.5 hrs in presence of different concentration DNA by fluorescence spectra analysis
Assay type: nucleic-acid assay
Items are presented alongside their recorded pEC50.
As a rule, pEC50 stands for the negative log10 of the concentration, concentration in M.

Consider the worked cases shown below.
structure string	val
COc1ccc2cc3[n+](cc2c1OC)CCc1cc2c(cc1-3)OCO2	6.14
c1c2c(cc3c1OCO3)-c1cc3ccc4c(c3c[n+]1CC2)OCO4	5.11
C[n+]1cc2c3c(ccc2c2ccc4cc5c(cc4c21)OCO5)OCO3	5.63

Now look at this entry.
Please report pEC50 for the following molecule: COc1ccc2c(c[n+](C)c3c4cc5c(cc4ccc23)OCO5)c1OC
5.41

# credit: ChEMBL document CHEMBL5579888
